assay: AUC (0 to 8 hrs) in Crj:CD rat lung at 5 mg/kg, po; type: ADME, organism-based; set-up: time < 8 hr, dose 5 mg/kg, route oral
Would you mind telling me the reported AUC(0-t) at 8 h of each entry?
Numbers only, in ng·h/mL.

Worked examples follow.
COc1c(N2CC3(CC3)[C@](C)(N)C2)c(F)cc2c(=O)c(C(=O)O)cn([C@@H]3C[C@@H]3F)c12
13700
COc1c(N2C[C@@H]3CCCN[C@@H]3C2)c(F)cc2c(=O)c(C(=O)O)cn(C3CC3)c12.Cl.O [MOXIFLOXACIN HYDROCHLORIDE HYDRATE]
15200
C[C@H]1COc2c(N3CCN(C)CC3)c(F)cc3c(=O)c(C(=O)O)cn1c23.C[C@H]1COc2c(N3CCN(C)CC3)c(F)cc3c(=O)c(C(=O)O)cn1c23.O
5570

Shift focus to the following entry.
Input line: // AUC(0-t) at 8 h lookup, key: "COc1c(N2C[C@@H](N)C3(CC3)C2)c(F)cc2c(=O)c(C(=O)O)cn([C@@H]3C[C@@H]3F)c12.Cl.O"
Output line: 6770
